- Tested on: Mythimna separata
- Method: Antifeedant activity against third-instar larvae of Mythimna separata (Oriental armyworm) at 2 mg/ml applied on wheat leaf after 24 hr by non-choice leaf disk method relative to control
- Type: functional
Reported AFI values are given for each entry in this list.
Result Type: AFI

Molecule | Reported Value
O=C(Oc1ccc2ccc(=O)oc2c1)c1cc([N+](=O)[O-])cc([N+](=O)[O-])c1 [7-(3,5-DINITROBENZOYLOXY)COUMARIN] | 46.7%
C=C(C)[C@H]1[C@H]2OC(=O)[C@@H]1[C@@]1(O)[C@H]3O[C@H]3[C@]3(CO3)[C@]1(C)[C@@H]2O [TUTIN] | 22.7%
O=c1ccc2ccc(O)cc2o1 [UMBELLIFERONE] | 25.4%
COc1ccc(C(=O)Oc2ccc3ccc(=O)oc3c2)cc1 [7-(4-METHOXYBENZOYLOXY)COUMARIN] | 32.3%
O=C(Oc1ccc2ccc(=O)oc2c1)c1ccc(Cl)nc1 [7-(6-CHLORONICOTINOYLOXY)COUMARIN] | 45.3%
O=C(Oc1ccc2ccc(=O)oc2c1)c1ccc([N+](=O)[O-])cc1 [7-(4-NITROBENZOYLOXY)COUMARIN] | -7.5%
C/C=C(\C)C(=O)O[C@H]1C[C@@H](OC(C)=O)[C@@]2(C(=O)OC)CO[C@H]3[C@@H](O)[C@@](C)([C@]45O[C@@]4(C)[C@@H]4C[C@H]5O[C@@H]5OC=C[C@@]54O)[C@H]4[C@]1(CO[C@]4(O)C(=O)OC)[C@@H]32 [AZADIRACHTIN A] | 37.3%

Taken from ChEMBL document CHEMBL3044683.
